# Test Name: Equilibrium solubility of Canagliflozin in McIlvaine buffer, FaSSIF and FeSSIF with excipients
# Type: physicochemical
# Measurement Conditions: FeSSIF, 37 °C, pH 5.5, fessif, thermodynamic from solid, no excipient, 24 h incubation, read-out: Equilibrium solubility in FeSSIF pH 5.5

# Given Smiles, Output Unit, solubility thermodynamic at 24 h
rows = [
    ("Cc1ccc([C@@H]2O[C@H](CO)[C@@H](O)[C@H](O)[C@H]2O)cc1Cc1ccc(-c2ccc(F)cc2)s1", "mg/mL", 21),
]

---

# Test Name: Equilibrium solubility of Canagliflozin in McIlvaine buffer, FaSSIF and FeSSIF with excipients
# Format: physicochemical
# Measurement Conditions: McIlvaine buffer, 37 °C, pH 6.5, aqueous with cosolvent or surfactant or cyclodextrin, thermodynamic from solid, with Texapon 1 mg/ml, 24 h, read-out: Equilibrium solubility in McIlvaine buffer pH 6.5

# Given Smiles, solubility thermodynamic at 24 h, µg/mL
data = [
    ("Cc1ccc([C@@H]2O[C@H](CO)[C@@H](O)[C@H](O)[C@H]2O)cc1Cc1ccc(-c2ccc(F)cc2)s1", 2850),
]

---

# Test Name: Equilibrium solubility of Canagliflozin in McIlvaine buffer, FaSSIF and FeSSIF with excipients
# Assay type: physicochemical
# Measurement Conditions: McIlvaine buffer, 37 °C, pH 6.5, aqueous buffer, thermodynamic from solid, buffer, no excipient, 24 h incubation, read-out: Equilibrium solubility in McIlvaine buffer pH 6.5
Metric Name: solubility thermodynamic at 24 h (µg/mL)

# Given Smiles, Metric Name, Output Unit, Reported
data = [
    ("Cc1ccc([C@@H]2O[C@H](CO)[C@@H](O)[C@H](O)[C@H]2O)cc1Cc1ccc(-c2ccc(F)cc2)s1", "solubility thermodynamic at 24 h", "µg/mL", 21),
]

---

# Test Name: Equilibrium solubility of Canagliflozin in McIlvaine buffer, FaSSIF and FeSSIF with excipients
# Assay type: physicochemical
# Measurement Conditions: McIlvaine buffer, 37 °C, pH 6.5, aqueous with cosolvent or surfactant or cyclodextrin, thermodynamic from solid, with HPMC 606 1 mg/ml, 24 h, read-out: Equilibrium solubility in McIlvaine buffer pH 6.5
Metric Name: solubility thermodynamic at 24 h

# Compound, Reported
rows = [
    ("Cc1ccc([C@@H]2O[C@H](CO)[C@@H](O)[C@H](O)[C@H]2O)cc1Cc1ccc(-c2ccc(F)cc2)s1 [Canagliflozin]", "62 µg/mL"),
]

---

# Test Name: Equilibrium solubility of Canagliflozin in McIlvaine buffer, FaSSIF and FeSSIF with excipients
# Type: physicochemical
# Measurement Conditions: FeSSIF, 37 °C, pH 5.5, aqueous with cosolvent or surfactant or cyclodextrin, thermodynamic from solid, with Texapon + HPMC 603, each 1 mg/ml, 24 h, read-out: Equilibrium solubility in FeSSIF pH 5.5
Metric Name: solubility thermodynamic at 24 h (mg/mL)

# Molecule, Metric Name, Reported
data = [
    ("Cc1ccc([C@@H]2O[C@H](CO)[C@@H](O)[C@H](O)[C@H]2O)cc1Cc1ccc(-c2ccc(F)cc2)s1 [Canagliflozin]", "solubility thermodynamic at 24 h", 27.8),
]

---

# Test Name: Equilibrium solubility of Canagliflozin in McIlvaine buffer, FaSSIF and FeSSIF with excipients
# Assay type: physicochemical
# Measurement Conditions: FaSSIF, 37 °C, pH 6.5, aqueous with cosolvent or surfactant or cyclodextrin, thermodynamic from solid, with Texapon 1 mg/ml, 24 h, read-out: Equilibrium solubility in FaSSIF pH 6.5

# Compound, solubility thermodynamic at 24 h
rows = [
    ("Cc1ccc([C@@H]2O[C@H](CO)[C@@H](O)[C@H](O)[C@H]2O)cc1Cc1ccc(-c2ccc(F)cc2)s1 [Canagliflozin]", "7980 µg/mL"),
]
